Documented selectivity ratio across a set of compounds
# test name: Selective ratio of HC50 for human RBC to IC50 for human HeLa cells
# Assay type: toxicity
# details: human red blood cells versus HeLa cells
assay metric: selectivity ratio

- Cc1sc2cc1C1=C(CCC1)c1cc(sc1C)C(=O)[C@H]1CCCN1C(=O)[C@H](C(C)C)NC(=O)[C@H](CCCN)N(C)C(=O)[C@H](C(C)C)NC(=O)[C@@H]1CCCN1C(=O)[C@@H](Cc1ccccc1)N(C)C(=O)[C@H](C(C)C)NC(=O)[C@H](CCCN)NC(=O)[C@H](C(C)C)NC2=O: 2.4
- Cc1sc2cc1C1=C(CCC1)c1cc(sc1C)C(=O)[C@H]1CCCN1C(=O)[C@H](CCCCN)NC(=O)[C@H](CC(C)C)NC(=O)[C@H](CCCCN)NC(=O)[C@H](C(C)C)NC(=O)[C@@H]1CCCN1C(=O)[C@@H](Cc1ccccc1)NC(=O)[C@H](CC(C)C)NC(=O)[C@H](CCCCN)NC(=O)[C@H](C(C)C)NC(=O)[C@H](CCCCN)NC2=O: 0.1
- Cc1sc2cc1C1=C(CCC1)c1cc(sc1C)C(=O)[C@H]1CCCN1C(=O)[C@H]([C@@H](C)O)NC(=O)[C@H](C13CC4CC(CC(C4)C1)C3)NC(=O)[C@H](CCCN)NC(=O)[C@@H]1CCCN1C(=O)[C@@H](Cc1ccccc1)NC(=O)[C@H](CCCN)NC(=O)[C@H](C13CC4CC(CC(C4)C1)C3)NC(=O)[C@H](CCCN)NC2=O: 0.4
- CC[C@H](C)[C@@H]1NC(=O)C2=CC3=C4CCCC4=C4C=C(S[C@]4(C)[C@@]3(C)S2)C(=O)[C@H]2CCCN2C(=O)[C@H]([C@@H](C)CC)NC(=O)[C@H](CCCN)NC(=O)[C@H](CC(C)C)NC(=O)[C@H](CC(C)C)N(C)C(=O)[C@@H](Cc2ccccc2)NC(=O)[C@H]([C@@H](C)CC)NC(=O)[C@H](CCCN)NC1=O: 1.1
- CC(C)C[C@@H]1NC(=O)[C@H](CCCN)NC(=O)[C@H](C)NC(=O)C2=CC3=C4CCCC4=C4C=C(S[C@]4(C)[C@@]3(C)S2)C(=O)[C@H]2CCCN2C(=O)[C@H](C)NC(=O)[C@H](CCCN)NC(=O)[C@H](C(C)C)NC(=O)[C@@H]2CCCN2C(=O)[C@@H](Cc2ccccc2)NC1=O: 1.7
- CC(C)C[C@@H]1NC(=O)[C@H](CCCCN)NC(=O)[C@H](C(C)C)NC(=O)C2=CC3=C4CCCC4=C4C=C(S[C@]4(C)[C@@]3(C)S2)C(=O)[C@H]2CCCN2C(=O)[C@H](CC(C)C)NC(=O)[C@H](CCCCN)NC(=O)[C@H](C(C)C)NC(=O)[C@H](CCCCN)N(C)C(=O)[C@@H](Cc2ccccc2)NC1=O: 0.9
- C[C@@H](O)[C@@H]1NC(=O)[C@H](C23CC4CC(CC(C4)C2)C3)NC(=O)[C@H](CCCN)NC(=O)[C@@H]2CCCN2C(=O)[C@@H](Cc2ccccc2)NC(=O)[C@H](CCCN)NC(=O)[C@H](C23CC4CC(CC(C4)C2)C3)NC(=O)[C@H](CCCN)NC(=O)C2=CC3=C4CCCC4=C4C=C(S[C@]4(C)[C@@]3(C)S2)C(=O)[C@H]2CCCN2C1=O: 1.2
